Origin of values: patent US20140378382A1

STUDY SYSTEM: T1, human parathyroid hormone receptor 1, wild-type (hPTHR-1) (human, UniProt Q03431 27-593)
T1 construct: whole, on cells; also called human PTHR-1; PTHR-1-WT
T1 sequence (looked up): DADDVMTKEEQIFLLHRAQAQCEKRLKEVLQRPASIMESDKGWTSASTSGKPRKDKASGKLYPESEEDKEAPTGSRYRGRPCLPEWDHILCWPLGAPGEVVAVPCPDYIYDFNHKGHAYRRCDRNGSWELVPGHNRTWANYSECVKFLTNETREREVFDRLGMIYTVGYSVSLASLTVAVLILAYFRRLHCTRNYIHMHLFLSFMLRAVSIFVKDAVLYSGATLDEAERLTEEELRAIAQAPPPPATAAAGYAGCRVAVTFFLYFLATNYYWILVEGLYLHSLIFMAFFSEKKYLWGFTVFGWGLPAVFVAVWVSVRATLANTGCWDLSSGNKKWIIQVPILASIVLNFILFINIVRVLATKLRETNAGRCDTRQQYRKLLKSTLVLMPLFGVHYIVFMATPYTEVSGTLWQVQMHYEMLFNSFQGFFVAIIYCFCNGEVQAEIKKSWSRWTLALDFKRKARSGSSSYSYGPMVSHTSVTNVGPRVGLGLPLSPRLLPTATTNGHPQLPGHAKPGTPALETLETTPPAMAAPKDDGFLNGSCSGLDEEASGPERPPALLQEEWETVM
TEST DESCRIPTION: R0 binding, GP2.3 membranes (human PTHR-1); tracer not stated here
Non-standard residues stand in square brackets, D forms with d. Primed or numbered codes have the meaning given here. No end group written: not given here. APC = aminopyrrolidine carboxylic acid (2-aminopyrrolidine-4-carboxylic acid); ACPC″ = 2-aminocyclopentane carboxylic acid (X); β3hS = N[C@@H](CO)CC(=O)O; Aib = CC(C)(N)C(=O)O
RESULT TYPE: IC50 (nM)
All answers are understood in nM, so give the number only.

| BINDER | RESULT TYPE | MEASURED |
| --- | --- | --- |
| [β3hS]VSE[ACPC″]Q[ACPC″]MHNLGK[ACPC″]LNS[ACPC″]ERV[APC]WLR[APC]KLQ[ACPC″]VHN[ACPC″]-NH2 [FcycD6_β3Ser(1), ACPC(5,7)] | IC50 | 89.4 |

We next turn to a different binder, shown below.
Exercise: Annotate the binder [β3hS]V[Aib]EIQ[ACPC″]MHNLGK[ACPC″]LNS[ACPC″]ERV[APC]WLR[APC]KLQ[ACPC″]VHN[ACPC″]-NH2 [FcycD6_β3Ser(1), Aib(3), ACPC (7)] with its measured IC50.
Solution: 1.54
